The reported measurements were obtained from patent US20140088052A1.

For each of the compounds below, state its fold induction at 10 µM.
# System: Nrf2
# experimentSummary: Expression of Nrf2-regulated genes GCLM and NQO1 by qRT-PCR in Beas-2B cells (screen)
# Format: cell-based, human
# conditionsUsed: Homo sapiens, BEAS-2B, 16 h, DMSO = 1.0 (Table 2), read-out: Relative Fold Change NQO1

## Input So what does the record say about fold induction at 10 µM for O=C(/C=C/c1cccc(C(F)(F)F)c1)c1ccccc1 [Compound 3a] ?
## Output 2.8

## Input So what does the record say about fold induction at 10 µM for COc1cccc(C(=O)/C=C/c2ccc(C(F)(F)F)cc2)c1 [Compound 4c] ?
## Output 3.1

## Input So what does the record say about fold induction at 10 µM for COc1cc(C(=O)/C=C/c2cccc(C(F)(F)F)c2)cc(OC)c1OC [Compound 3j] ?
## Output 0.8

## Input So what does the record say about fold induction at 10 µM for COc1ccc(C(=O)/C=C/c2cccc(C(F)(F)F)c2)c(OC)c1 [Compound 3e] ?
## Output 4

## Input So what does the record say about fold induction at 10 µM for COc1ccc(C(=O)/C=C/c2ccccc2C(F)(F)F)c(OC)c1 [Compound 2e] ?
## Output 4.5

====

# System: Beas-2B cells
# experimentSummary: Cell viability / cytotoxicity (MTT assay) in Beas-2B cells
# Assay type: cell-based, human
# conditionsUsed: 24 h, DMSO = 100
# Procedure: Concurrent with the gene expression analysis, the cytotoxicity of the chalcone derivatives was determined using the MTT assay. Mad. Chem. 2007, 15, 2952-2962. […] Four hours before the end of incubation, the medium was removed and 100 μL of MTT (5 mg/mL in serum free medium) was added to each well. […] The absorbance was recorded at 570 nm in a plate reader (Molecular Devices, Sunnyvale, Calif.).
For each of the compounds below, state its % Cell Viability.
Enter your answer as a number in %; do not include the unit.

## Input So what does the record say about % Cell Viability for COc1cc(OC)cc(C(=O)/C=C/c2cccc(C(F)(F)F)c2)c1 [Compound 3i] ?
## Output 108.2

## Input So what does the record say about % Cell Viability for COc1ccc(C(=O)/C=C/c2ccccc2C(F)(F)F)cc1 [Compound 2d] ?
## Output 96

## Input So what does the record say about % Cell Viability for COc1cc(OC)c(C(=O)/C=C/c2ccccc2C(F)(F)F)c(OC)c1 [Compound 2l] ?
## Output 145.3

## Input So what does the record say about % Cell Viability for COc1cc(OC)cc(C(=O)/C=C/c2ccccc2C(F)(F)F)c1 [Compound 2i] ?
## Output 87.1

## Input So what does the record say about % Cell Viability for COc1cc(OC)cc(C(=O)/C=C/c2ccccc2[N+](=O)[O-])c1 [Compound 5i] ?
## Output 90.9
